- Test system: PC-3 prostate
- assay comment: NCI-60 one-dose screen, 48 h
- experimental context: 10 µM unless noted
Compounds without any hit were thinned out: in the full panel of roughly 83,000, 20% have a hit. Calls of active or inactive are those of the source. Rule for the calls: active = growth percent below 10; inactive = the rest.
Please reply with one of these outcomes: Yes = active, No = inactive

Ask: Given COc1ccc(-c2nnc(COc3ccc(NC(=O)Nc4ccc(Cl)c(C(F)(F)F)c4)cc3F)o2)cc1 , state the outcome it received in this test.
Result: Yes

Ask: Please do the same for CCCC(C(=O)OCC)C(C)OC(=O)OCC (stereo unspecified) as well.
Result: No

Ask: Again, but for COc1ccc(-c2nc3sccn3c2-c2ccnc(NCCCNS(=O)(=O)c3ccc(F)cc3)n2)cc1
Result: No

Ask: Note, next up: Cc1cc(Nc2nc(C(=O)Nc3ccccc3)nc3ccccc23)n[nH]1
Result: No

Ask: And the next one, COc1ccc(-c2nc3sccn3c2-c2ccnc(NCCNS(=O)(=O)c3ccc(C(F)(F)F)cc3)n2)cc1 ?
Result: Yes

Ask: Try this compound too: Cc1cc(Nc2nc(-c3ccc(F)cc3)nc3ccccc23)n[nH]1
Result: No

Ask: Try the compound Nc1c(C(=O)Nc2cccc(C(F)(F)F)c2)sc2nc3c(cc12)CCCCCC3
Result: No

Ask: What would you report for COc1cc(NCCN=C(N)NC(N)=NC(C)C)c2ncccc2c1 ?
Result: No

Ask: What about this compound? CCN(CC)CCCC(C)N=c1cc(Nc2cc(=NC(C)CCCN(CC)CC)c3cc(OC)ccc3o2)oc2ccc(OC)cc12 (stereo unspecified)
Result: Yes

Ask: Then this compound: Cc1c(C(=O)NCc2ccccc2)[n+](=O)c2cc(F)ccc2n1[O-]
Result: No

Ask: Same question, CC(Br)C(Br)c1cc2c(cc1Br)OCO2 (stereo unspecified) this time
Result: No

Ask: Entry to check: COc1ccc(-n2c(C)cc(-c3ccccc3)c2C)cc1
Result: No

Ask: Cool, now Clc1nc2ccccc2nc1CI
Result: No

Ask: Same lookup for Cc1ccc(C(=O)c2sc3nc4c(cc3c2N)CCCC4)c(C)c1 , please.
Result: Yes

Ask: Ok, now O=P([O-])(O)OP(=O)([O-])O.[NH-][C@H]1CCCC[C@@H]1[NH-].[OH-].[OH-].[Pt+4]
Result: No

Ask: Likewise for CN=S(=O)(NC(=O)c1ccc(Cl)cc1Cl)c1ccc(Br)s1 (stereo unspecified) ?
Result: No

Ask: And what about the compound CC/C=C\C/C=C\C[C@H](O)C/C=C1/C(=O)C=C[C@H]1C/C=C\CCC(=O)OC ?
Result: No

Ask: And what about the compound Cc1cccc(NC(=O)c2sc3nc4c(cc3c2N)CCCC4)c1 ?
Result: No

Ask: Same for Cc1cc(-c2ccccc2)c(C)n1Cc1ccc(Cl)cc1
Result: No

Ask: Now try COc1cc(CNC(=O)CSc2nc3ccccc3c(=O)n2Cc2cc(OC)c(OC)c(OC)c2)cc(OC)c1OC .
Result: No

Ask: CCOC(=O)[C@H](CSSc1ncnc2cc[nH]c12)NC(=O)[C@@H](C)c1ccc2cc(OC)ccc2c1 , same question.
Result: No

----------
- Test system: SNB-75 CNS
- assay comment: NCI-60 one-dose screen, 48 h (100 = growth as untreated, 0 = no growth, -100 = all killed)
- experimental context: 10 µM unless noted
This is part of a sample that, as a whole, favours compounds with a hit. Of some 83,000 tested, about 20% had one in any assay.
measurement label: growth (%)
Lab book: enter the figure in %, no units written.

Ask: Form field - read-out: growth; system: SNB-75 CNS; submitted item: CC[C@H](C)[C@@H]1NC(=O)[C@H]([C@@H](C)O)NC(=O)C(Cc2ccccc2)NC(=O)[C@@H]2CCCN2C(=O)C(C(C)C)NC(=O)C(Cc2ccccc2)NC(=O)CNC(=O)[C@@H]2CCCN2C1=O (some centres undefined)
Result: 54.3

Ask: Another: O=S(=O)(NCCCNc1nccc(-c2c(-c3ccc(O)cc3)nc3sccn23)n1)c1ccc(F)cc1
Result: 17.8

Ask: And what about the compound O=C1c2ccccc2C(=O)c2c(N=Nc3sc(=O)[nH]c3S)cccc21 ?
Result: 112

Ask: Repeat for the following compound: COc1cc(C2C=C(C)N=C3SC=C(C)N32)cc(OC)c1OC (centres undefined)
Result: 24.6

Ask: Note, next up: CCSc1nnc(Nc2ccc(C(C)C)cc2)s1
Result: 102

Ask: Subsequent entry: O=C1CCCCN1CCCCC#Cc1ccccc1C#Cc1ccc([N+](=O)[O-])cc1
Result: 66.1

Ask: And for COc1cccc2nc(Nc3ccc(NC(=O)c4ccc5ncccc5c4)cc3)ccc12 ?
Result: 80.8

Ask: Subsequent entry: O=C(Nc1ccc(I)cc1)c1cccc([N+](=O)[O-])c1O
Result: 41.2

Ask: And Cc1ccc(S(=O)(=O)N2CCC(C(=O)Nc3ccc(F)cc3F)CC2)cc1 ?
Result: 93.2

----------
- Tested on: RXF 393 renal
- assay comment: NCI-60 one-dose screen, 48 h (100 = growth as untreated, 0 = no growth, -100 = all killed)
- experimental context: 10 µM unless noted
This is part of a sample that, as a whole, favours compounds with a hit. Of some 83,000 tested, about 20% had one in any assay.
Assignment: determine reported growth for the given molecules.
Numeric only. Scale: %

Ask: Record lookup: for RXF 393 renal, what growth belongs to C=C1C(=O)O[C@H]2[C@H]1CC/C(COC(=O)NCCc1cccc(OC)c1)=C\CC[C@@]1(C)O[C@@H]21 ?
Result: -2.81

Ask: Same question, COc1cccc(-c2nc3sccn3c2-c2ccnc(NCCCNS(=O)(=O)c3ccccc3)n2)c1 this time
Result: 67.1

Ask: # repeat for O=C(CNc1ccc(Cl)cc1)Nc1ccc(-c2nc3ccccc3s2)cc1
Result: 84.2

Ask: Now consider Cc1cc(N/C=c2\sc3ncnn3c2=O)no1 .
Result: 113

Ask: Then this molecule: O=C(Nc1ccc(F)cc1)c1cc([N+](=O)[O-])ccc1O
Result: 68.2

Ask: Same question, C=C1C(=O)O[C@H]2[C@H]1CC/C(Cn1cc(-c3ccsc3)nn1)=C\CC[C@@]1(C)O[C@@H]21 this time
Result: -56.7

Ask: Entry to check: Cc1nc2scc(-c3ccccc3)n2c(=O)c1CCO
Result: 106

Ask: Repeat for the following molecule: CCN(CC)CCSc1c2ccc(Cl)cc2nc2ccc(OC)cc12
Result: 116

Ask: Now the same for O=C(CCC(=O)OC1CCCC1)OC1CCCC1
Result: 97.6

Ask: Another: O=C1Nc2cc(Cl)ccc2/C1=C/c1ccc(N2CCOCC2)s1
Result: 93.9

Ask: Request: Cc1ccccc1C(=O)c1ccccc1C(=O)O
Result: 118

----------
- Tested on: COLO 205 colon
- assay comment: NCI-60 one-dose screen, 48 h
- experimental context: 10 µM unless noted
- Experimental: Cells are grown in 96 well plates and exposed to the test compound for 48 hours. Compounds are tested at a single concentration, which is 10^-5 M for most compounds. The reported endpoint is percent growth (GI% or GIPRCNT), where numbers from 0 - 100% represent growth inhibition, and numbers from -100% - 0 represent cell death. For example, a value of 40 represents 60% growth inhibition. A value of 0 means no net growth occurred over the course of the experiment. […]
The panel holds about 83,000 compounds, 20% with a hit somewhere; the sample as a whole holds those more often. Active and inactive are the calls of the source. The calls were made as follows: active = growth percent below 10; inactive = the rest.
Mark one answer only. Choices: TRUE = active, FALSE = inactive

Ask: Outcome logged for O=C(c1ccccc1)C(Cl)C(Cl)c1ccccc1 (stereo unspecified) in this assay:
Result: TRUE

Ask: Query CCN(CC)CCSc1c2ccc(Cl)cc2nc2ccc(OC)cc12 next
Result: FALSE

Ask: And for CN(C)c1ccc(C2CC(c3ccccc3)=NN2/C=C2\SC(=O)NC2=O)cc1 (stereo unspecified) ?
Result: FALSE

Ask: Follow-up entry: Clc1nc(-c2cccnc2)nc2sc3c(c12)CCCCCC3
Result: FALSE

Ask: Same read-out for Cc1cc(C(=O)O)c(N)c(C)n1 ?
Result: FALSE

Ask: Moving on to CC(=O)Nc1ccc(S(=O)(=O)N2C(=O)CCC2C(=O)Nc2ccc(Br)cc2)cc1 (stereo unspecified)
Result: TRUE

----------
- System: PC-3 prostate
- assay comment: NCI-60 one-dose screen, 48 h (100 = growth as untreated, 0 = no growth, -100 = all killed)
- experimental context: 10 µM unless noted
This is part of a sample that, as a whole, favours compounds with a hit. Of some 83,000 tested, about 20% had one in any assay.
# label = bin(measured growth), where bins are low = under 30%, medium = from 30% up to 90%, high = 90% and over

Ask: Which class is correct for the following compound? COc1ccc(C(=O)c2cc(OC)c(OC)c(OC)c2)cc1/C=C/C(=O)c1ccc(O)cc1
Result: medium

Ask: Next record, please: CCn1cc(C(=O)O)c(=O)c2cc(F)c(N3CCN(S(=O)(=O)c4c(C)cc(C)cc4C)CC3)cc21
Result: medium

Ask: Let us now turn to COc1ccc(C(=O)c2cc(OC)c(OC)c(OC)c2)cc1/C=C/C(=O)c1ccc(OC)c(OC)c1
Result: medium

Ask: Also, CCCCCCCCCCCCCCCCCCOc1cccc(CCOP(=O)(O)OCC[N+](C)(C)C)c1 please.
Result: low

Ask: Query CC(=O)c1cc(C(=O)c2ccc3c(c2)Sc2ccccc2N3)c2cc(C)ccn12 next
Result: low

Ask: Try this compound next: CSc1ccccc1C#C/C=C\C#Cc1ccccc1N1CCCC1=O
Result: medium

Ask: Also COC1=CC(c2ccc[nH]2)=N/C1=C\c1[nH]c(C)c(C(=O)CCCCC(=O)NCc2ccccc2)c1C ?
Result: low

Ask: Continue with Nc1c(C(=O)Nc2ccccc2)sc2nc3c(cc12)CCCCC3
Result: low

Ask: Here is the next compound: CCC(c1ccc(OC)cc1)C(CC)c1ccc(OCC[N+](C)(C)C)cc1 (stereo not drawn)
Result: medium

Ask: Try COc1cc(/C=C2\CCCC3=C2NC(C)=NC3c2cc(OC)c(OC)c(OC)c2)cc(OC)c1OC (stereo not drawn) next.
Result: medium

Ask: Input c1ccc2c(c1)Oc1ccccc1C2C1c2ccccc2Oc2ccccc21
Result: medium

Ask: Moving on to the next compound: Cc1cc2c(C(C)C)c(O)c(O)c(C=NCCCCCCC(=O)O)c2c(O)c1-c1c(C)cc2c(C(C)C)c(O)c(O)c(C=NCCCCCCC(=O)O)c2c1O
Result: low

Ask: Now this one: COc1ccc(NC(=O)CSc2nc3ccccc3c(=O)n2-c2ccccc2C(F)(F)F)c(OC)c1OC
Result: high

Ask: Let us now turn to COc1cccc(/C=C/c2c(C(=O)O)cccc2[N+](=O)[O-])c1OC
Result: high

Ask: For CCN(CC)P(=O)(N(CC)CC)N(CCCSC/C=C(\C)CC/C=C(\C)CCC=C(C)C)CCCN1CCN(C)CC1 then?
Result: high

Ask: Likewise for CCNC(=O)CCCCC(=O)c1c(C)[nH]c(/C=C2\N=C(c3ccc[nH]3)C=C2OC)c1C ?
Result: low

Ask: Same read-out for O=c1c2cccc3c(Nc4ccc(F)cc4)ccc(c32)c2nc3ccccc3n12 ?
Result: medium

Ask: And COC1=CC(c2ccc[nH]2)=N/C1=C\c1[nH]c(C)c(C(=O)CCC(=O)Oc2ccc3c(c2)CCC2C3CC[C@]3(C)[C@@H](O)CC[C@@H]23)c1C (stereo partly drawn) ?
Result: low

Ask: And O=C(Nc1cccc(C(F)(F)F)c1)Nc1ccc(OCc2nnc(-c3ccccc3)o2)c(F)c1 ?
Result: low

Ask: O=C(CCCn1c2c(sc3ccccc32)c(=O)n2nnc(-c3ccccc3)c12)NCCc1cnc[nH]1 , same question.
Result: low

Ask: Entry to check: O=c1oc2cc(OS(=O)(=O)c3ccc(F)cc3)ccc2c2c1CCCCC2
Result: medium

Ask: Continue with O=S(=O)(NCCCNc1cc(-c2cn(-c3ccccc3)nc2-c2cccc(O)c2)ccn1)c1ccc(Cl)cc1
Result: low

Ask: Try this compound too: CCCCCCc1nc2c(c(C)nn2-c2ccccc2)c2c1CCCCC2
Result: high

Ask: Also Cc1oc2nc[nH]c(=O)c2c1C(=O)/C=C/c1ccc(Cl)cc1Cl , if possible.
Result: medium

Ask: // next record O=C(Nc1cc(C(F)(F)F)cc(C(F)(F)F)c1)Nc1ccc(OCc2nnc(-c3ccc(Cl)cc3)o2)c(F)c1
Result: low

Ask: Follow-up entry: O=C(CSc1nc(-c2ccc(Cl)cc2)cn1-c1ccc(Cl)cc1)c1ccc(Br)cc1
Result: medium

Ask: // same read-out, input: COc1cc2nc(Cl)nc(NCCO)c2cc1OC
Result: high

Ask: COc1ccc(C2=NN(c3ccc(S(N)(=O)=O)cc3)C(c3cn(-c4ccccc4)nc3-c3ccc(Cl)cc3)C2)cc1 (stereo not drawn) , same question.
Result: medium

Ask: What about CCSc1nnc(Nc2ccc(C(C)C)cc2)s1 ?
Result: high

Ask: Check CC1(C)OC2COC3(C(=O)O)OC(C)(C)OC3C2O1 (stereo not drawn) too.
Result: high

Ask: Follow-up item: CN(C)C/C=C/C(=O)Nc1cc2c(Nc3cccc(Cl)c3F)ncnc2cc1OCCOC(F)F
Result: medium

Ask: Again, but for CCOC(=O)c1cc(/C(=N\O)c2cc(OC)c(OC)c(OC)c2)n2c(C)cccc12
Result: medium

Ask: Next compound: NC(=O)c1cccc(N2Cc3ccccc3OC3=C2C(=O)c2c(O)ccc(O)c2C3=O)c1
Result: low

Data origin: PubChem BioAssay (NCI)
